Cited source for all entries: the supplement of paper PMC7125110

Each entry below lists one item and its recorded self-cleavage kobs at 160 uM GlcN6P value.
B1: glmS ribozyme (parent)
chain: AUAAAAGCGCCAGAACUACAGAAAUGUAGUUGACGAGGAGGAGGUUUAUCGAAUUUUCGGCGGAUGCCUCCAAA

- Variants of: B1
- PROTOCOL_SUMMARY: self-cleavage kobs at 160 uM GlcN6P; higher = faster cleavage; RNA array
- EXPERIMENTAL_CONDITIONS: with glucosamine-6-phosphate
Variants at the floor of the assay were thinned out.

# example entries with known answers
{"columns": ["VARIANT_ANNOTATION", "self-cleavage kobs at 160 uM GlcN6P"],
 "data": [
  ["G59U C67U U69A", "6.91e-05 s⁻¹"],
  ["G7A U47C", "< 1e-05 s⁻¹"],
  ["A15C G40A", "8.81e-05 s⁻¹"]
]}

Let me know recorded self-cleavage kobs at 160 uM GlcN6P for A39U A53C , thanks.
0.000314 s⁻¹

Let me know recorded self-cleavage kobs at 160 uM GlcN6P for C50G U57A , thanks.
8.31e-05 s⁻¹

Let me know recorded self-cleavage kobs at 160 uM GlcN6P for G7U A33G , thanks.
< 1e-05 s⁻¹

Let me know recorded self-cleavage kobs at 160 uM GlcN6P for G32C G51C C68U , thanks.
< 1e-05 s⁻¹

Let me know recorded self-cleavage kobs at 160 uM GlcN6P for G35C A52G , thanks.
< 1e-05 s⁻¹

Let me know recorded self-cleavage kobs at 160 uM GlcN6P for C16G U46A C50A U69G , thanks.
0.000562 s⁻¹
